# MEASURED TARGET: Tyrosine-protein kinase ABL1 (Homo sapiens)
# Sequence (P00519 whole entry): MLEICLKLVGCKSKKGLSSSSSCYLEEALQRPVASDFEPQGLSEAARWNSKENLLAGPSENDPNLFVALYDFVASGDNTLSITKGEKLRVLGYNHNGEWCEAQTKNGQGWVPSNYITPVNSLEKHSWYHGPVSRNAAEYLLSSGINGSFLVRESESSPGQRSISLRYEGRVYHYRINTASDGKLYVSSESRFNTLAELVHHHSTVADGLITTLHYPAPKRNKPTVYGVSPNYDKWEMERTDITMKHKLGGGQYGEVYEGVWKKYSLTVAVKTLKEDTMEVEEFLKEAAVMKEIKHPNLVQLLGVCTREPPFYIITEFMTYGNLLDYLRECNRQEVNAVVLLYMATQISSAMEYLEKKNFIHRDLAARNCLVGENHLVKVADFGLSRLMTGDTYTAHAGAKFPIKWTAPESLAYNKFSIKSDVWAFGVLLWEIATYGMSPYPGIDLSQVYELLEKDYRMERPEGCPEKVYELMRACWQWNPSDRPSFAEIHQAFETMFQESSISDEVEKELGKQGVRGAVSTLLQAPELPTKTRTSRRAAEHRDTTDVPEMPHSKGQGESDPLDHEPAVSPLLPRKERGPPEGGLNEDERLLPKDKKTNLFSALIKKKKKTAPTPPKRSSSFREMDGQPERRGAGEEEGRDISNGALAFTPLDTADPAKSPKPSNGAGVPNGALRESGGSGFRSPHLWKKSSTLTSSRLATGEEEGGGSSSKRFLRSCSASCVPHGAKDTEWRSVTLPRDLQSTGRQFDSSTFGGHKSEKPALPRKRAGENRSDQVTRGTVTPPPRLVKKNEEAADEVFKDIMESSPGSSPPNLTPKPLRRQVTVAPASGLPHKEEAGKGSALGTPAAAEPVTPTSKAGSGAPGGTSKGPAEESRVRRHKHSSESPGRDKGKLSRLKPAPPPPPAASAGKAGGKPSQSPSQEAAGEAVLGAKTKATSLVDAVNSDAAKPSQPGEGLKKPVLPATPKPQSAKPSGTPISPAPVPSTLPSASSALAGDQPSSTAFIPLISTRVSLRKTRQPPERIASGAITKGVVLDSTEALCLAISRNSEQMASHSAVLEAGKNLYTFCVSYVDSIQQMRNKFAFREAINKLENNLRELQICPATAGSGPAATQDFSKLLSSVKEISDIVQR
MEASUREMENT NAME: IC50

Given item CC(=O)N1Cc2ncnc(Oc3ccc4c(ccn4C(=O)Nc4cc(C5CC5)on4)c3)c2C[C@@H]1C , the value recorded as its IC50 is < 0.5 µM

====

# EXPERIMENT NOTES: AUC (0 to 6 hrs) in cynomolgus monkey plasma administered 1% solution using 30 uL topical drop to both eyes as single dose by LC-MS/MS analysis
# Assay type: ADME, Macaca fascicularis
# Parameters: time < 6 hr, dose 30 uL, route ophthalmic
# CONDITION NOTES: topical or ocular, 30 uL of 1% solution per eye
MEASUREMENT NAME: AUC(0-t) at 6 h (µM·h)
Give bare numbers, in µM·h.

Given item CNCc1cc(Oc2ccc3c(ccn3C(=O)Nc3cc(C(F)(F)F)n(C)n3)c2)ncn1 , the value recorded as its AUC(0-t) at 6 h is 0.0644

====

# EXPERIMENT NOTES: Tmax in cynomolgus monkey plasma administered 1% solution using 30 uL topical drop to both eyes as single dose by LC-MS/MS analysis
# Assay type: ADME, Macaca fascicularis
# CONDITION NOTES: topical or ocular, 30 uL of 1% solution per eye
MEASUREMENT NAME: Tmax (min)
Numbers only, in min.

Given item CNCc1cc(Oc2ccc3c(ccn3C(=O)Nc3cc(C(F)(F)F)n(C)n3)c2)ncn1 , the value recorded as its Tmax is 40.2

====

Please go through the items and note down their pIC50.
# MEASURED TARGET: Vascular endothelial growth factor receptor 2 (Homo sapiens, UniProt P35968)
# Sequence (P35968 whole entry): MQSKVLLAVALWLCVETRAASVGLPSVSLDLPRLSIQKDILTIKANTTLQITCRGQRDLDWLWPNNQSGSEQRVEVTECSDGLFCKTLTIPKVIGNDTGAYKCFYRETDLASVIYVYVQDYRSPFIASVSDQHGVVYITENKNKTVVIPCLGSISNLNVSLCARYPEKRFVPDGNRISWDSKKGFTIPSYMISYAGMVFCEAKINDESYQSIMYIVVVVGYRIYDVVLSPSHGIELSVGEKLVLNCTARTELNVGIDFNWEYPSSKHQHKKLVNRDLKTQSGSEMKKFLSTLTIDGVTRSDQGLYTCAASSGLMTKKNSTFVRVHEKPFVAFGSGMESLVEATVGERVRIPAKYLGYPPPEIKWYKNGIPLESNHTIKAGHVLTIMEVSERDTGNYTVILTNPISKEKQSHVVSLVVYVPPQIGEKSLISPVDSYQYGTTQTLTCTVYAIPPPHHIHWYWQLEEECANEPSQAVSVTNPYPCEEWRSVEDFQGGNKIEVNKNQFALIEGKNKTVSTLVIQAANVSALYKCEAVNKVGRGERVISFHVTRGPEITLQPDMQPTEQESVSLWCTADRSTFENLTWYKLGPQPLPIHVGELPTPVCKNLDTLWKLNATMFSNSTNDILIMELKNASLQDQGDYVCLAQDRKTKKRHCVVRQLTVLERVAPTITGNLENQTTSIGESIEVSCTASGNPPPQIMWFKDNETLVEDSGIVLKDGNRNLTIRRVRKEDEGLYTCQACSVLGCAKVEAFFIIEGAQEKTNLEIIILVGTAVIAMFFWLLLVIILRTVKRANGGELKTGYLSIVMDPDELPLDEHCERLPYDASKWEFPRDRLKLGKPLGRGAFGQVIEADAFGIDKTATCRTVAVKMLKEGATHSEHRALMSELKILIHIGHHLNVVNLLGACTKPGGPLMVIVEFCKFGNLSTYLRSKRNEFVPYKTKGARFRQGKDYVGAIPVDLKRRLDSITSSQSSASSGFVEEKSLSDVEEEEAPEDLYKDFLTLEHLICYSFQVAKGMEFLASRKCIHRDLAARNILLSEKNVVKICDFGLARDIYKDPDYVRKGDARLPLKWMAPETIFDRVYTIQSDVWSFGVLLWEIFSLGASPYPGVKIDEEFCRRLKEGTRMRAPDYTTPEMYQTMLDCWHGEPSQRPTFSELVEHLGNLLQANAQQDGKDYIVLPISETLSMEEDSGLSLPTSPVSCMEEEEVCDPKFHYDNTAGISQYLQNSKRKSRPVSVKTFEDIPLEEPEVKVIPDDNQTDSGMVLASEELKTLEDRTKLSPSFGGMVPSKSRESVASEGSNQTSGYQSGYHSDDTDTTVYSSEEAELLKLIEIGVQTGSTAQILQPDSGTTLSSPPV
Answers are plain numbers, as −log10 of the molar value.

O=C(Nc1cccc(C(F)(F)F)c1)c1cccc2cc(Oc3cc(CO)ncn3)ccc12 [BFH-772] : 8.89

Given item Nc1nccc(Oc2ccc3c(C(=O)Nc4cccc(C(F)(F)F)c4)cccc3c2)n1 , the value recorded as its pIC50 is 8.77

====

# EXPERIMENT NOTES: Tmax in cynomolgus monkey plasma administered 0.5% suspension using 30 uL topical drop to both eyes as single dose by LC-MS/MS analysis
# Format: ADME, Macaca fascicularis
# CONDITION NOTES: topical or ocular, 30 uL of 0.5% suspension per eye
MEASUREMENT NAME: Tmax (h)
Answers are plain numbers, in h.

Given item CC(=O)N1Cc2ncnc(Oc3ccc4c(ccn4C(=O)Nc4cc(C5CC5)on4)c3)c2C[C@@H]1C , the value recorded as its Tmax is 11

====

# EXPERIMENT NOTES: Half life in cynomolgus monkey plasma administered 1% suspension using 30 uL topical drop to both eyes as single dose by LC-MS/MS analysis
# Assay type: ADME, Macaca fascicularis
# CONDITION NOTES: topical or ocular, 30 uL of 1% suspension per eye
MEASUREMENT NAME: half-life
I'd appreciate it if you included the unit after the number.

Given item CNCc1cc(Oc2ccc3c(ccn3C(=O)Nc3cc(C(F)(F)F)n(C)n3)c2)ncn1 , the value recorded as its half-life is 4.38 h

====

# EXPERIMENT NOTES: Cmax in cynomolgus monkey plasma administered 1% suspension using 30 uL topical drop to both eyes as single dose by LC-MS/MS analysis
# Assay type: ADME, Macaca fascicularis
# Design: dose 30 uL, route ophthalmic
# CONDITION NOTES: topical or ocular, 30 uL of 1% suspension per eye
MEASUREMENT NAME: Cmax (nM)
Numbers only, in nM.

Given item CNCc1cc(Oc2ccc3c(ccn3C(=O)Nc3cc(C(F)(F)F)n(C)n3)c2)ncn1 , the value recorded as its Cmax is 5.38
